MEASURED_ON: PI3 kinase alpha (Homo sapiens)
Sequence (P42336 whole entry): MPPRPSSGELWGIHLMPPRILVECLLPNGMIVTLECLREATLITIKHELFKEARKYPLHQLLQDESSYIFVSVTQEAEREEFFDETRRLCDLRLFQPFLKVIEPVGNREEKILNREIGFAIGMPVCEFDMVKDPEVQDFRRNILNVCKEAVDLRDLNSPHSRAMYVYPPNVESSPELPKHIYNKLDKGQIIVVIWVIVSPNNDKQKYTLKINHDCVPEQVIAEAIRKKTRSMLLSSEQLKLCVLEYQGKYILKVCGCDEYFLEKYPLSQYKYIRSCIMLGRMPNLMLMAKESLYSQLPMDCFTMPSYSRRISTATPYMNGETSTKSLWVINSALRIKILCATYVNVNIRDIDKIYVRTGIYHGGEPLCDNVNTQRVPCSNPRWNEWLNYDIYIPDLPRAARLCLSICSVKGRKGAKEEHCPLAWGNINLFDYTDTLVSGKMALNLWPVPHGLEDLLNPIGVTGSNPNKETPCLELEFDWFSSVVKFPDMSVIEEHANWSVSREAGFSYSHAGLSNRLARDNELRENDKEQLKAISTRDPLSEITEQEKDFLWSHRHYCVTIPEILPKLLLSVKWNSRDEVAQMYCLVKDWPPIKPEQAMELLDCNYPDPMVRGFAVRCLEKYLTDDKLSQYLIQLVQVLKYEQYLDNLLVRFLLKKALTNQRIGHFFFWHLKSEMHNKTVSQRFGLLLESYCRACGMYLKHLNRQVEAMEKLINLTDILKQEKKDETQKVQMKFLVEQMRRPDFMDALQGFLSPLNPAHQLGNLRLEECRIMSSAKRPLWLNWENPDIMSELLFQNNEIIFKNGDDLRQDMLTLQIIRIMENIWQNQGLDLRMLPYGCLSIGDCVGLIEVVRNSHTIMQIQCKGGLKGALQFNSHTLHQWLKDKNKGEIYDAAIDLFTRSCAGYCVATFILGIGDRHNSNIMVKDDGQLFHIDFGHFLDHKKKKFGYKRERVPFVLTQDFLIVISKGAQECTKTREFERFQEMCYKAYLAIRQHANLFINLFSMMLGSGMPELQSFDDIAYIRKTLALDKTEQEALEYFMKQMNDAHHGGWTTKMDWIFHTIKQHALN
Sequence (P27986 whole entry partner): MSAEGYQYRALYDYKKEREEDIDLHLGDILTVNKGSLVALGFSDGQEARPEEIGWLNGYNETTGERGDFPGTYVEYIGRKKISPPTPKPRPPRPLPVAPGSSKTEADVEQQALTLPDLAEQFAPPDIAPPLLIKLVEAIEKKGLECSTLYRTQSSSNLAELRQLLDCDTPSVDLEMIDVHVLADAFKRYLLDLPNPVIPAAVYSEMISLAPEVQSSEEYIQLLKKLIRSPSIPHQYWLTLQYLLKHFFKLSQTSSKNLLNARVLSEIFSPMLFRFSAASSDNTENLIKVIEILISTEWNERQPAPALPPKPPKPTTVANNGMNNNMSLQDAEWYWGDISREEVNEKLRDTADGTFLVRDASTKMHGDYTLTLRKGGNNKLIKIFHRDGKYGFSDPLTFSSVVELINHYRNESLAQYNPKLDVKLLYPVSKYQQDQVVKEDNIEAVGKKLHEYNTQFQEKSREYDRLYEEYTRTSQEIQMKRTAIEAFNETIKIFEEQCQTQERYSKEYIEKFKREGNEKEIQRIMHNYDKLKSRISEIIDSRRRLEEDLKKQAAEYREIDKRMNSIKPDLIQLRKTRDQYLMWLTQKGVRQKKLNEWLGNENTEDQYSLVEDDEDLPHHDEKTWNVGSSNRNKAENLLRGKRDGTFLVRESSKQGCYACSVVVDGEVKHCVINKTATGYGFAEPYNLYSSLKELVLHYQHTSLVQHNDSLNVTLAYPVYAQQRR
TEST_NAME: PI3K ATP depletion assay (Biological Method 1, Assay 3)
Format: biochemical
READOUT_LABEL: IC50

Here's what some known entries look like.
> print(dat)
                                   molecule  endpoint.value
1  Nc1ncc(-c2cc(OC3CCN(C(=O)OCc4ccccc4)CC3)nc(N3CCOCC3)n2)c(N)n1 [Compound 146]       < 1000 nM
2  N#Cc1cccnc1Nc1cc(-c2ccc(N)nc2)nc(N2CCOCC2)n1 [Compound 364]      < 10000 nM
3  CCN(CC)CCc1csc(Nc2cc(-c3cnc(N)nc3C(F)(F)F)nc(N3CCOCC3)n2)n1 [Compound 55]       < 1000 nM

(Q) State, for PI3 kinase alpha (Homo sapiens), measured IC50 of the molecule listed here: Nc1cc(C(F)(F)F)c(-c2cc(-c3cccnc3NCCO)nc(N3CCOCC3)n2)cn1 [Compound 285]
(A) < 1000 nM
